biological target: furin, P09958; test: furin cleavage Z-score vs untreated control; higher = more cleavage, active = 3.5 or more, inactive = 1 or less, 8 variable residues between constant flanks; details: 15 min;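 also: purified furin at 1:10 enzyme:substrate in 50 mM HEPES pH 7.5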
Sequence (P09958 whole entry): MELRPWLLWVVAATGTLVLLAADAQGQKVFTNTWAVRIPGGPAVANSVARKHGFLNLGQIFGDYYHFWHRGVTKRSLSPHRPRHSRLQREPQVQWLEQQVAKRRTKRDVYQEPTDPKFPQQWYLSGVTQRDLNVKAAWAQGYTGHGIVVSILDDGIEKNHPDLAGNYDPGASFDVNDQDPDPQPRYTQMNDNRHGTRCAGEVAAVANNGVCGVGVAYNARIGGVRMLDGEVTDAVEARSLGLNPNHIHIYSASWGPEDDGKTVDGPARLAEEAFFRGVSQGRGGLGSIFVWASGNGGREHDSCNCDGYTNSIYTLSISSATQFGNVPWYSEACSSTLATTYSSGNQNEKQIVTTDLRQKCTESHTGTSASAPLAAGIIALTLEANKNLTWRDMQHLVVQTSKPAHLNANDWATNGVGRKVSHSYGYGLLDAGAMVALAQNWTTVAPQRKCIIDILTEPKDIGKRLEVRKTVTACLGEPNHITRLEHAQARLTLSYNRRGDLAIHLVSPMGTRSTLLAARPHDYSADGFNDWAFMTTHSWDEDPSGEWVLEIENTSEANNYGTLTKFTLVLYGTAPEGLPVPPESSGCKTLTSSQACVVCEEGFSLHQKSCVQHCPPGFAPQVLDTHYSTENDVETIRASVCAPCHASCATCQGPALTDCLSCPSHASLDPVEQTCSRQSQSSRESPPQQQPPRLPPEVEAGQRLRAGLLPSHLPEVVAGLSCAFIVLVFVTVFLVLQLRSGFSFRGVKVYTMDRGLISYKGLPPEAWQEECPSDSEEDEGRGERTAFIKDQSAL
This is one part of the list. No count for the full screen is at hand.
Quick rule for you: furin cleavage Z-score at 2 or higher means Y, lower means N.

>>> df
                        residues  class_name
 0   CAARMILMTHAGNASASA [HC1581]           N
 1     CAVVCISMSYAGNASASA [HC85]           N
 2  CAKLKRSHELAGNASASA [FS-2868]           Y
 3   CAVVCCSMSRAGNASASA [HC2093]           N
 4  CAQQELRKRLAGNASASA [FS-1390]           N
 5  CARWPRSDPEAGNASASA [FS-1807]           Y
 6   CAPLTRSKRDAGNASASA [FS-700]           Y
 7  CARVWRDSFLAGNASASA [FS-2407]           N
 8  CARSARSAPEAGNASASA [FS-2377]           Y
 9    CAAQQTRGLLAGNASASA [HC677]           N
10  CARTWRSVPEAGNASASA [FS-2528]           N
11  CARCVRICSKAGNASASA [FS-2899]           N
12  CARSARSVARAGNASASA [FS-3075]           Y
13  CARVARSGRDAGNASASA [FS-3115]           Y
14    CAVQGLLRFCAGNASASA [HC618]           N
